Target: CDK12 (nuclear staining in CAL-120 cells) (Homo sapiens)
Construct: endogenous in cells; host or cells: CAL-120 human breast cancer cells (DSMZ ACC 459)
Sequence (Q9NYV4 whole entry): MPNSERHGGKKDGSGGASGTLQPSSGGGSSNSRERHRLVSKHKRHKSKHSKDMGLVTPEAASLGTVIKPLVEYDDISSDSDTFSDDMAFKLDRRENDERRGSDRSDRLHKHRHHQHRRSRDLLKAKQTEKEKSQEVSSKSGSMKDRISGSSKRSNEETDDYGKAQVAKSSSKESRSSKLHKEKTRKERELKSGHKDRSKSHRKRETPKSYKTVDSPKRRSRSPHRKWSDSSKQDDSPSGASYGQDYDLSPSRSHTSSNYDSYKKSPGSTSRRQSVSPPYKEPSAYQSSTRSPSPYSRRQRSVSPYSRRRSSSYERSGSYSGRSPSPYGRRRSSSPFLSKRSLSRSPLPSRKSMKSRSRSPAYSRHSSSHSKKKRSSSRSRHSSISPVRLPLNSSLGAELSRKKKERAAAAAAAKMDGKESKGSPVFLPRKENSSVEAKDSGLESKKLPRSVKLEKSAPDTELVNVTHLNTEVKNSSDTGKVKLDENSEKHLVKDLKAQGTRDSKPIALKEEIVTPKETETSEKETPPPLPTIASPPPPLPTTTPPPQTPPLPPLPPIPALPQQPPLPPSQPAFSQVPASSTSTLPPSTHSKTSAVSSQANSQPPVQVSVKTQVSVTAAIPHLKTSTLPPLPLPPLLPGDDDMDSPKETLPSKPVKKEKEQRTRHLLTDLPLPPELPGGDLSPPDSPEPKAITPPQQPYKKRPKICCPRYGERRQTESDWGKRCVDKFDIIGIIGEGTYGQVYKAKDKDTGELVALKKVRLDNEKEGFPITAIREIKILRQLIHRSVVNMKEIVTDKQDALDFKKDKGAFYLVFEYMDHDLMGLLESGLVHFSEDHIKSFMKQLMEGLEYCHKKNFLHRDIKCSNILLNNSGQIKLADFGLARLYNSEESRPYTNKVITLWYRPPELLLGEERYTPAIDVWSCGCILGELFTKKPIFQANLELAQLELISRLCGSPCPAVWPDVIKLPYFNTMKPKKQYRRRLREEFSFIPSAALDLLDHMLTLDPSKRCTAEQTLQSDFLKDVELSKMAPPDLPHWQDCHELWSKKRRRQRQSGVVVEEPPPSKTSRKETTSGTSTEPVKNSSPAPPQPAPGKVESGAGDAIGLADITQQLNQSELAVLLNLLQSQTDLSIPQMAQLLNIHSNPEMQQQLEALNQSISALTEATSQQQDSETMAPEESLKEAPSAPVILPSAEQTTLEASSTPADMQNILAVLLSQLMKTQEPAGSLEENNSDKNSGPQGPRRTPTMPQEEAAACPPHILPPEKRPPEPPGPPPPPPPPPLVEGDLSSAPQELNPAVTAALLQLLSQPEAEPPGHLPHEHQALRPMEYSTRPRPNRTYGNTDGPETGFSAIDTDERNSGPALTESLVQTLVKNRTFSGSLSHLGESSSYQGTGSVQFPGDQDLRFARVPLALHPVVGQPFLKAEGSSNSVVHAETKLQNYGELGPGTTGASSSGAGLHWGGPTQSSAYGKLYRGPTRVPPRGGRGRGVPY
Sequence (O75909 whole entry partner): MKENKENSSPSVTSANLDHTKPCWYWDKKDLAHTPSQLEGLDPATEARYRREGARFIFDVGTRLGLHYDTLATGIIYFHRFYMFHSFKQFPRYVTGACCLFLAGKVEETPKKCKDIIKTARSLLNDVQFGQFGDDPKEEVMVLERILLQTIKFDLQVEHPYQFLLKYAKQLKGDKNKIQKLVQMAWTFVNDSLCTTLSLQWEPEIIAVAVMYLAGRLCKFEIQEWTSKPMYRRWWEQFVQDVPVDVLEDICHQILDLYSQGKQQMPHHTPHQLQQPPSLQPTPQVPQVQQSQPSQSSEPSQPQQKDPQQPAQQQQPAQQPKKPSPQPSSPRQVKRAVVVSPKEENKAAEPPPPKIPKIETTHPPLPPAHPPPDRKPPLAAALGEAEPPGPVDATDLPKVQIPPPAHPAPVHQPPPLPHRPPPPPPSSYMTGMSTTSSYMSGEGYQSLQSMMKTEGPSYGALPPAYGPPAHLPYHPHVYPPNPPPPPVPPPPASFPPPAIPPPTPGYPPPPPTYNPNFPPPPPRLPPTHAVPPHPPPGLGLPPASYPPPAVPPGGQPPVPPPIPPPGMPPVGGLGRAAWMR
Test: CDK12 nuclear protein level: immunofluorescence/high content analysis (CAL-120)
Format: cell-based
Conditions: CAL-120 cells, 24 h, immunofluorescence; 50% reduction of nuclear CDK12 staining intensity; median; read-out: CDK12 degradation IF, DC50- [mol/l] (median)
Endpoint: DC50 (nM)
Answer in nM, number only, no unit symbol.

Record excerpt, results attached:
CN1C2CCC1CN(c1nc(NCc3nc4c(F)c(F)ccc4[nH]3)n3ncc(C(F)(F)F)c3n1)C2: 6.68
Cc1ccc2[nH]c(CNc3nc(N4CCN(C)CC4)nc4c(Br)cnn34)nc2c1: 0.536
Fc1ccc(-c2nnc(CNc3nc(N4CCOCC4)nc4c(Br)cnn34)[nH]2)c(F)c1: 4.06
Brc1cnn2c(NCc3nc4ccccc4[nH]3)nc(N3CCOCC3)nc12: 1.07
CN[C@@H]1CCN(c2nc(NCc3nc4ccccc4[nH]3)n3ncc(Br)c3n2)C1: 0.875

Request: What DC50 value was documented for this compound, Fc1ccc2[nH]c(CNc3nc(N4CCOCC4)nc4c(C5CC5(F)F)cnn34)nc2c1F (stereo not drawn) ?
Response: 1.18

Request: Entry CN1CCN(c2nc(NCc3nc4c(OC(F)(F)F)cccc4[nH]3)n3ncc(Br)c3n2)CC1 please
Response: 12.4

Request: Entry Cc1cnn2c(NCc3nc4ccccc4[nH]3)nc(N3CCN(C)CC3)nc12 please
Response: 19.4
